Form field: MIC (one value per entry).
Test system: gram negative bacteria
Assay: In vitro anti-bacterial activity assay (broth dilution MIC), gram negative bacteria
Format: cell-based, E. coli
Conditions: Escherichia coli, ATCC25922, 18 h, E. coli ATCC 25922; read-out: Median MIC's G− E. coli ATCC 25922
Field format: number, assumed µg/mL, no unit text.

CN(C)[C@@H]1C(O)=C(C(N)=O)C(=O)[C@@]2(O)C(O)=C3C(=O)c4c(O)ccc(-c5cccc(C(=O)NCCN6CCOCC6)c5)c4CC3CC12 (stereo partly drawn): 16
CN(C)CCCc1cccc(-c2ccc(O)c3c2C[C@H]2C[C@H]4[C@H](N(C)C)C(O)=C(C(N)=O)C(=O)[C@@]4(O)C(O)=C2C3=O)c1: 2
CN(C)[C@@H]1C(O)=C(C(N)=O)C(=O)[C@@]2(O)C(O)=C3C(=O)c4c(O)ccc(-c5cccc(CCCN6CCCCC6)c5)c4C[C@H]3C[C@@H]12: 1
CCN(CC)CCNC(=O)c1cccc(-c2ccc(O)c3c2C[C@H]2C[C@H]4[C@H](N(C)C)C(O)=C(C(N)=O)C(=O)[C@@]4(O)C(O)=C2C3=O)c1: 8

For the molecule CC(C)N(C)CC(=O)c1ccc(O)c2c1C[C@H]1C[C@H]3[C@H](N(C)C)C(O)=C(C(N)=O)C(=O)[C@@]3(O)C(O)=C1C2=O , give its reported MIC.
0.25

For the molecule COCCCNC(=O)c1cccc(-c2ccc(O)c3c2CC2CC4[C@H](N(C)C)C(O)=C(C(N)=O)C(=O)[C@@]4(O)C(O)=C2C3=O)c1 (stereo partly drawn) , give its reported MIC.
64
